Where these numbers come from: paper PMC12820563

Target: MBP-FoxP3dN (Mus musculus, UniProt Q99JB6 188-423)
Sequence: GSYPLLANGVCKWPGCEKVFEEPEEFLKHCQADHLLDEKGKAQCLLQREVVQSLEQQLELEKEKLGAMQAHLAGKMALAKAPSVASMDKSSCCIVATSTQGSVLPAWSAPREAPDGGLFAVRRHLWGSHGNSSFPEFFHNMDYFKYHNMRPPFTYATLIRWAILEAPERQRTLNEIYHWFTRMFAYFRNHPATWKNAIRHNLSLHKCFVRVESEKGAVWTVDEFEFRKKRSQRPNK
Experiment: PD-seq (MBP pull-down with sequencing); 20 mM Tris-HCl pH 7.5, 100 mM NaCl, 1.5 mM MgCl2, 0.4 uM protein, 0.1 uM dsDNA library, 30 min, room temperature, amylose pull-down; high values mean tight binding
Details: protein: recombinant; tags: His6-MBP; chain copies: 2; dsDNA, one strand shown
Over roughly 16,000 sequences, “rpm ratio (pull-down/input)” has its median near 0.5; the highest 2% begin near 5.5. Only a selection was taken, and the highest values are over-represented in it overall.
# binding signal annotations

Before answering, review these 4 worked examples.
1. GATGATTGTTCTCCCAGCTGATGAATTTTGTTGCTCGAGTAAACAAATTTTCCTAATCTTTCTGTTCAAGCGCCATCTAC :: 5.63 RPM ratio (pull-down/input)
2. GATGATTGTTCTCCCAGCTGATGAATTGATCAGGTCGAGTAAACAAATTTTCCTAATCTTTCTGTTCAAGCGCCATCTAC :: 0.232 RPM ratio (pull-down/input)
3. GATGATTGTTCTCCCAGCTGATGAATTCAAACATTCGAGTAAACAAATTTTCCTAATCTTTCTGTTCAAGCGCCATCTAC :: 1.12 RPM ratio (pull-down/input)
4. GATGATTGTTCTCCCAGCTGATGAATTTTATTGCTCGAGTAAACAAATTTTCCTAATCTTTCTGTTCAAGCGCCATCTAC :: 2.06 RPM ratio (pull-down/input)

Which measured binding signal belongs to GATGATTGTTCTCCCAGCTGATGAATTTCCCGTGTCGAGTAAACAAATTTTCCTAATCTTTCTGTTCAAGCGCCATCTAC , tested on MBP-FoxP3dN (Mus musculus, UniProt Q99JB6 188-423)?
0.287 RPM ratio (pull-down/input)

And what about the sequence GATGATTGTTCTCCCAGCTGATGAATTGTGGGGGTCGAGTAAACAAATTTTCCTAATCTTTCTGTTCAAGCGCCATCTAC ?
0.783 RPM ratio (pull-down/input)

And what about the sequence GATGATTGTTCTCCCAGCTGATGAATTTGTTGACTCGAGTAAACAAATTTTCCTAATCTTTCTGTTCAAGCGCCATCTAC ?
7.34 RPM ratio (pull-down/input)

And what about the sequence GATGATTGTTCTCCCAGCTGATGAATTGCCTCGGTCGAGTAAACAAATTTTCCTAATCTTTCTGTTCAAGCGCCATCTAC ?
0.565 RPM ratio (pull-down/input)

And what about the sequence GATGATTGTTCTCCCAGCTGATGAATTATTTGACTCGAGTAAACAAATTTTCCTAATCTTTCTGTTCAAGCGCCATCTAC ?
0.481 RPM ratio (pull-down/input)

And what about the sequence GATGATTGTTCTCCCAGCTGATGAATTAGTTTACTCGAGTAAACAAATTTTCCTAATCTTTCTGTTCAAGCGCCATCTAC ?
5.83 RPM ratio (pull-down/input)

And what about the sequence GATGATTGTTCTCCCAGCTGATGAATTGGCGAATTCGAGTAAACAAATTTTCCTAATCTTTCTGTTCAAGCGCCATCTAC ?
0.898 RPM ratio (pull-down/input)

And what about the sequence GATGATTGTTCTCCCAGCTGATGAATTAGTTTTCTCGAGTAAACAAATTTTCCTAATCTTTCTGTTCAAGCGCCATCTAC ?
4.62 RPM ratio (pull-down/input)

And what about the sequence GATGATTGTTCTCCCAGCTGATGAATTTGATGACTCGAGTAAACAAATTTTCCTAATCTTTCTGTTCAAGCGCCATCTAC ?
3.97 RPM ratio (pull-down/input)

And what about the sequence GATGATTGTTCTCCCAGCTGATGAATTTAAGGCATCGAGTAAACAAATTTTCCTAATCTTTCTGTTCAAGCGCCATCTAC ?
0.732 RPM ratio (pull-down/input)

And what about the sequence GATGATTGTTCTCCCAGCTGATGAATTTGATTGCTCGAGTAAACAAATTTTCCTAATCTTTCTGTTCAAGCGCCATCTAC ?
5.45 RPM ratio (pull-down/input)

====

Biological target: MBP-FoxP3dN (Mus musculus, UniProt Q99JB6 188-423)
Sequence: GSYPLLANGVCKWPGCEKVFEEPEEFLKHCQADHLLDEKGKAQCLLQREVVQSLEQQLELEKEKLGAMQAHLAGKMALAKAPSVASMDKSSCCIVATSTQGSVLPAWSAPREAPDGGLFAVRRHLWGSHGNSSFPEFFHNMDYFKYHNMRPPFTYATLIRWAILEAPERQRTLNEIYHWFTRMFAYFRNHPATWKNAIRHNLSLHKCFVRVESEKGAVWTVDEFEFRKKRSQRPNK
Assay: PD-seq (MBP pull-down with sequencing); 20 mM Tris-HCl pH 7.5, 100 mM NaCl, 1.5 mM MgCl2, 0.4 uM protein, 0.1 uM dsDNA library, 30 min, room temperature, amylose pull-down; high values mean tight binding
Conditions: protein: recombinant; tags: His6-MBP; chain copies: 2; dsDNA, one strand shown
The full ranking holds about 16,000 sequences; the median of “rpm ratio (pull-down/input)” is about 0.5, and the highest 2% start at about 5.5. The entries come from a sample that favours the highest values as a whole.
property.name: binding signal

1) GATGATTGTTCTCCCAGCTGATGAATTTGGTGCTTCGAGTAAACAAATTTTCCTAATCTTTCTGTTCAAGCGCCATCTAC :: 1.59 RPM ratio (pull-down/input)
2) GATGATTGTTCTCCCAGCTGATGAATTTTGCAATTCGAGTAAACAAATTTTCCTAATCTTTCTGTTCAAGCGCCATCTAC :: 5.75 RPM ratio (pull-down/input)
3) GATGATTGTTCTCCCAGCTGATGAATTAATAGAGTCGAGTAAACAAATTTTCCTAATCTTTCTGTTCAAGCGCCATCTAC :: 0.294 RPM ratio (pull-down/input)
4) GATGATTGTTCTCCCAGCTGATGAATTCGTGCAATCGAGTAAACAAATTTTCCTAATCTTTCTGTTCAAGCGCCATCTAC :: 3.15 RPM ratio (pull-down/input)

Which measured binding signal belongs to GATGATTGTTCTCCCAGCTGATGAATTTCCGTTATCGAGTAAACAAATTTTCCTAATCTTTCTGTTCAAGCGCCATCTAC , tested on MBP-FoxP3dN (Mus musculus, UniProt Q99JB6 188-423)?
0.615 RPM ratio (pull-down/input)

And what about the sequence GATGATTGTTCTCCCAGCTGATGAATTGCGCAATTCGAGTAAACAAATTTTCCTAATCTTTCTGTTCAAGCGCCATCTAC ?
5.72 RPM ratio (pull-down/input)

====

# binding signal annotations
Target: MBP-FoxP3dN (Mus musculus, UniProt Q99JB6 188-423)
Sequence: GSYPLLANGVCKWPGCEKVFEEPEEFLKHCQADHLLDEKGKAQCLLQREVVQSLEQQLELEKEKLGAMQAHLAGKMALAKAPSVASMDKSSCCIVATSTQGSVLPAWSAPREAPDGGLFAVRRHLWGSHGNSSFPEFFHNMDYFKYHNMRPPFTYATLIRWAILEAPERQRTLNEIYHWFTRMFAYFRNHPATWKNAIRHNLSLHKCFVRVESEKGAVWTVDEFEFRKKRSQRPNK
Test: PD-seq (MBP pull-down with sequencing); 20 mM Tris-HCl pH 7.5, 100 mM NaCl, 1.5 mM MgCl2, 0.4 uM protein, 0.1 uM dsDNA library, 30 min, room temperature, amylose pull-down; high values mean tight binding
Conditions: protein: recombinant; tags: His6-MBP; chain copies: 2; dsDNA, one strand shown
In all, about 16,000 sequences were measured (“rpm ratio (pull-down/input)”: median about 0.5, highest 2% from about 5.5 on). What follows is part of a selection rich in the highest values, with near analogues and random picks from the rest.

Before answering, review these 3 worked examples.
1) GATGATTGTTCTCCCAGCTGATGAATTTTTTATTTCGAGTAAACAAATTTTCCTAATCTTTCTGTTCAAGCGCCATCTAC :: 0.301 RPM ratio (pull-down/input)
2) GATGATTGTTCTCCCAGCTGATGAATTGATTTATTCGAGTAAACAAATTTTCCTAATCTTTCTGTTCAAGCGCCATCTAC :: 2.58 RPM ratio (pull-down/input)
3) GATGATTGTTCTCCCAGCTGATGAATTTATTTTTTCGAGTAAACAAATTTTCCTAATCTTTCTGTTCAAGCGCCATCTAC :: 4.63 RPM ratio (pull-down/input)

Kindly review the next sequence as well.
Data request, read-out binding signal, for GATGATTGTTCTCCCAGCTGATGAATTAATTTATTCGAGTAAACAAATTTTCCTAATCTTTCTGTTCAAGCGCCATCTAC
2.61 RPM ratio (pull-down/input)
